Data origin, for the record: ChEMBL document CHEMBL1139398

assay: Cytotoxicity against human 184B5 cells at 20 uM chloroquine by SRB assay relative to control; format: cell-based; conditions: 184b5, 20 µM
Activity: recorded values
Note: a bare number is incomplete; add the unit.

Here are 3 compounds together with their reported answers.
[[record]]
entry_smiles = "O=c1[nH]c2ccccc2n1C1CCN(Cc2ccc(-c3nc4cc5[nH]cnc5cc4nc3-c3ccccc3)cc2)CC1"
observed_result = "43%"

[[record]]
entry_smiles = "CC[n+]1c(/C=C/N(C)c2ccccc2)n(-c2ccccc2)c2ccc(-c3nc4ccccc4s3)cc21"
observed_result = "89%"

[[record]]
entry_smiles = "CCCCCCCCCCCCCCCCCCOC[C@H](COP(=O)(O)O[C@@H]1CC[C@@H](O)[C@H](O)[C@H]1O)OC"
observed_result = "68%"


With those in mind, consider the next compound.
## Task What value of Activity has been recorded for this entry: "CCCCCCCCCCCCCCCCCCOC[C@H](COP(=O)(O)O[C@H]1[C@H](O)[C@@H](O)[C@H](O)C[C@H]1OC)OC"
## Result 65%

---

GI50: recorded values
experiment: Cytotoxicity against human 184B5 cells by SRB assay; type: cell-based
Enter your answer as a number in µM; do not include the unit.

Here are 3 compounds together with their reported answers.
[[record]]
entry_smiles = "CCCCCCCCCCCCCCCCCCOC[C@H](COC(=O)O[C@H]1[C@H](O)[C@@H](O)[C@H](O)[C@H](CO)[C@H]1O)OC"
observed_result = 31.9

[[record]]
entry_smiles = "O=c1cc(N2CCOCC2)oc2c(-c3ccccc3)cccc12"
observed_result = 39.4

[[record]]
entry_smiles = "O=c1[nH]c2ccccc2n1C1CCN(Cc2ccc(-c3nc4cc5[nH]cnc5cc4nc3-c3ccccc3)cc2)CC1"
observed_result = 60.6


With those in mind, consider the next compound.
## Task What value of GI50 has been recorded for this entry: "CC(=O)[O-].COc1ccc2[nH]c3c(C)c4cc[n+](C)cc4c(C)c3c2c1"
## Result 0.36
